Form field: MIC (one value per entry).
System: Human alphaherpesvirus 3
Experiment: The minimum inhibitory concentration was measured on HEL cells against TK-Varicella zoster virus (YS-R strain)
Assay type: functional
Details: Human alphaherpesvirus 3, ys-r
Quick note: give the figure in mg/L, leave out the unit.

Some solved entries appear below for comparison.
ITEM SMILES	UNIT OF MEASUREMENT	MIC
Cc1cn2c(O)c3c(nc2n1)N(COCCO)CN3	mg/L	70
O=c1[nH]c(=O)n([C@H]2C[C@H](O)[C@@H](CO)O2)cc1/C=C/Br	mg/L	20

// switching to the query molecule
Challenge: I'd like to know its MIC. The molecule in question is OCC(CO)OCN1CNc2c1nc1nc(-c3ccc(-c4ccccc4)cc3)cn1c2O
Response given: 20

Origin of the recorded values: ChEMBL document CHEMBL1127471
